Experiment: Toxicity on HepG2 cells (crystal violet staining)
Type: cell-based
Conditions: HepG2 human hepatoma cells

compound	CC50 at 48 h
O=C(/C=C/c1ccccc1)c1ccc(Br)cc1O [MPK334]	> 100 µM
COc1cc(OC)cc(C(=O)Nc2nc(-c3ccccc3)cs2)c1 [YAK308]	> 100 µM
C[C@](C#N)(COc1cc(C#N)ccc1C(F)(F)F)NC(=O)c1ccc(SC(F)(F)F)cc1 [Monepantel, monepantel, reference compound]	> 100 µM
Cc1ccc(/C=C/C(=O)NOCc2ccccc2)cc1 [MPK18]	> 100 µM
CO/N=C1\C[C@]2(C[C@@H]3C[C@@H](C/C=C(\C)C[C@@H](C)/C=C/C=C4\CO[C@@H]5[C@H](O)C(C)=C[C@@H](C(=O)O3)[C@]45O)O2)O[C@H](/C(C)=C/C(C)C)[C@H]1C [Moxidectin, moxidectin, reference compound]	> 100 µM

----------
System: exsheathed third-stage larvae (xL3) / fourth-stage larvae (L4) of Haemonchus contortus
Assay: Dose-response assay, inhibition of larval development (xL3 to L4) and phenotype over 7 days
Assay type: cell-based
Conditions: Haemonchus contortus, 168 h; seven days; read-out: concentration at which active on larval development (IC50 not determined)

compound	IC50
Cc1ccc(/C=C/C(=O)NOCc2ccccc2)cc1 [MPK18]	> 25 µM

----------
Test system: exsheathed third-stage larvae (xL3) / fourth-stage larvae (L4) of Haemonchus contortus
Experiment: Dose-response assay, inhibition of larval development (xL3 to L4) and phenotype over 7 days
Assay type: cell-based
Conditions: Haemonchus contortus, 168 h; seven days; mean ± SEM; read-out: L4 Development (7 days) IC50 ± SEM
Measured IC50, listed per entry.
quantity: IC50 (µM)

compound	study_system	quantity	readout_value
C[C@](C#N)(COc1cc(C#N)ccc1C(F)(F)F)NC(=O)c1ccc(SC(F)(F)F)cc1 [Monepantel, monepantel, reference compound]	exsheathed third-stage larvae (xL3) / fourth-stage larvae (L4) of Haemonchus contortus	IC50	0.4
O=C(/C=C/c1ccccc1)c1ccc(Br)cc1O	exsheathed third-stage larvae (xL3) / fourth-stage larvae (L4) of Haemonchus contortus	IC50	12.3
CO/N=C1\C[C@]2(C[C@@H]3C[C@@H](C/C=C(\C)C[C@@H](C)/C=C/C=C4\CO[C@@H]5[C@H](O)C(C)=C[C@@H](C(=O)O3)[C@]45O)O2)O[C@H](/C(C)=C/C(C)C)[C@H]1C [Moxidectin, moxidectin, reference compound]	exsheathed third-stage larvae (xL3) / fourth-stage larvae (L4) of Haemonchus contortus	IC50	12.4
COc1cc(OC)cc(C(=O)Nc2nc(-c3ccccc3)cs2)c1	exsheathed third-stage larvae (xL3) / fourth-stage larvae (L4) of Haemonchus contortus	IC50	6.5
